# measured_target: kinases (kinome) (Homo sapiens)
# Construct: determined in kinobeads assays with mass spectrometry detection of kinases as described previously; endogenous in cells
# Sequence (P30291 whole entry): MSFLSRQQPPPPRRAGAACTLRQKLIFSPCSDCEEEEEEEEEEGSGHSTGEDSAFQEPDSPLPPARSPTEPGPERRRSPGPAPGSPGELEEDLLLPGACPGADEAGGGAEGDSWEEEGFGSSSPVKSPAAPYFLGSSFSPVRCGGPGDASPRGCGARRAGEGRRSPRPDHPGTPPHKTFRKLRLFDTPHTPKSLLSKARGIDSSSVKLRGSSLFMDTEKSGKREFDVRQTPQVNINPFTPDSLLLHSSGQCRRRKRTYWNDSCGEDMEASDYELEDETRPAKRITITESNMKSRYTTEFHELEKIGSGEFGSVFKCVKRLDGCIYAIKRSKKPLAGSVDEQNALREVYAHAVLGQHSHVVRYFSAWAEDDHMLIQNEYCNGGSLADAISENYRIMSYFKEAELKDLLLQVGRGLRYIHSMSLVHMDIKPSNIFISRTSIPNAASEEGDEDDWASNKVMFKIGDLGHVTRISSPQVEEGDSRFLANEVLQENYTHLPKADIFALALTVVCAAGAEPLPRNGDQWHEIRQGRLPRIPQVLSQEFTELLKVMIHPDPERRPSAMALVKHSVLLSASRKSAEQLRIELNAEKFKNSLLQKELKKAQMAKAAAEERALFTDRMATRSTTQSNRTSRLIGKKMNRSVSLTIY
# assay_details: kinobeads assay with mass spectrometry detection of kinases (kinase selectivity profile)
# measurement_parameters: Wee1 (Other), IPI00025830
Provide the reported IC50 of each item.

[ask] Find the measured IC50: item C[C@H]1COCCN1c1nc(-c2ccc(NC(=O)NC3CC3)cc2)cc(-c2cccnc2S(C)(=O)=O)n1 , target or system kinases (kinome) (Homo sapiens).
[reply] > 10 µM

[ask] Find the measured IC50: item CCNC(=O)Nc1ccc(-c2cc(-c3ccccc3C#N)nc(N3CCOC[C@@H]3C)n2)cc1 , target or system kinases (kinome) (Homo sapiens).
[reply] > 10 µM

[ask] Find the measured IC50: item C[C@H]1COCCN1c1nc(-c2ccc(NC(=O)NC3CC3)cc2)cc(-c2ccccc2S(C)(=O)=O)n1 , target or system kinases (kinome) (Homo sapiens).
[reply] > 10 µM
